Reported GI50 by item:
experimental details: Growth inhibition of human SF539 cells after 48 hrs by SRB assay
Assay type: functional
experimental context: SF-539, 48 h

- item smiles: "COc1ccc(C(=O)N2c3ccccc3Sc3ccccc32)c(OC)c1"
  GI50: "333 nM"
- item smiles: "O=C(c1ccc2c(c1)Sc1ccccc1N2)c1c[nH]c2ccccc12"
  GI50: "258 nM"
- item smiles: "COc1ccc(C(=O)N2c3ccccc3Sc3ccccc32)c(C(F)(F)F)c1"
  GI50: "270 nM"
- item smiles: "COc1ccc(C(=O)N2c3ccccc3Sc3ccccc32)c(F)c1"
  GI50: "409 nM"
- item smiles: "COc1ccc(C(=O)N2c3ccccc3Sc3ccccc32)cc1F"
  GI50: "218 nM"

* * *

experimental details: Growth inhibition of human HOP92 cells at 10 uM after 48 hrs by SRB assay relative to control
Assay type: functional
experimental context: HOP-92, 48 h, read-out: GI
inhibition of growth at 10 µM reference
readout: inhibition of growth at 10 µM

- item smiles: "O=C(c1ccc(Cl)cc1Cl)N1c2ccccc2Sc2ccccc21"
  value observed: "28%"
- item smiles: "COc1ccc(C(=O)c2ccc3c(c2)Sc2ccccc2N3C)cc1F"
  value observed: "17%"
- item smiles: "COc1ccc(C(=O)N2c3ccccc3Sc3ccccc32)cc1F"
  value observed: "45%"
- item smiles: "COc1ccc(C(=O)N2c3ccccc3Sc3ccccc32)c(F)c1"
  value observed: "58%"
- item smiles: "COc1ccc(C(=O)c2ccc3c(c2)Sc2cc(C(=O)c4ccc(OC)c(F)c4)ccc2N3C)cc1F"
  value observed: "1%"
- item smiles: "O/N=C(/c1ccc2c(c1)Sc1ccccc1N2)c1c[nH]c2ccccc12"
  value observed: "51%"
- item smiles: "COc1ccc(C(=O)N2c3ccccc3Sc3ccccc32)c(OC)c1"
  value observed: "69%"
- item smiles: "COc1ccc(C(=O)N2c3ccccc3Sc3ccccc32)c(C(F)(F)F)c1"
  value observed: "85%"
- item smiles: "O=C(c1ccc(F)c(Cl)c1)N1c2ccccc2Sc2ccccc21"
  value observed: "63%"
- item smiles: "O=C(c1ccc2c(c1)Sc1ccccc1N2)c1c[nH]c2ccccc12"
  value observed: "28%"
- item smiles: "O=C(c1ccc(F)cc1F)N1c2ccccc2Sc2ccccc21"
  value observed: "39%"

* * *

Each item that follows carries a reported inhibition of growth at 10 µM.
Tested on: ACHN
experimental details: Growth inhibition of human ACHN cells at 10 uM after 48 hrs by SRB assay relative to control
Format: functional
experimental context: read-out: GI
readout: inhibition of growth at 10 µM (%)

- item smiles: "COc1ccc(C(=O)c2ccc3c(c2)Sc2cc(C(=O)c4ccc(OC)c(F)c4)ccc2N3C)cc1F"
  value observed: 0
- item smiles: "O=C(c1ccc2c(c1)Sc1ccccc1N2)c1c[nH]c2ccccc12"
  value observed: 45
- item smiles: "COc1ccc(C(=O)N2c3ccccc3Sc3ccccc32)c(OC)c1"
  value observed: 57
- item smiles: "O=C(c1ccc(F)c(Cl)c1)N1c2ccccc2Sc2ccccc21"
  value observed: 0
- item smiles: "O=C(c1ccc(F)cc1F)N1c2ccccc2Sc2ccccc21"
  value observed: 20

* * *

System: Malme-3M
experimental details: Growth inhibition of human MALME-3M cells after 48 hrs by SRB assay
Assay type: functional
Threshold 500 nM. GI50 below it: Met. GI50 at it or above: Not met.

- item smiles: "COc1ccc(C(=O)N2c3ccccc3Sc3ccccc32)c(C(F)(F)F)c1"
  assigned category: "Not met"
- item smiles: "COc1ccc(C(=O)N2c3ccccc3Sc3ccccc32)cc1F"
  assigned category: "Met"
- item smiles: "O=C(c1ccc2c(c1)Sc1ccccc1N2)c1c[nH]c2ccccc12"
  assigned category: "Not met"
- item smiles: "COc1ccc(C(=O)N2c3ccccc3Sc3ccccc32)c(F)c1"
  assigned category: "Not met"
- item smiles: "COc1ccc(C(=O)N2c3ccccc3Sc3ccccc32)c(OC)c1"
  assigned category: "Met"

* * *

Tested on: U-251
experimental details: Growth inhibition of human U251 cells after 48 hrs by SRB assay
Assay type: functional
experimental context: U-251, 48 h

- item smiles: "O=C(c1ccc2c(c1)Sc1ccccc1N2)c1c[nH]c2ccccc12"
  GI50 / nM: 413
- item smiles: "COc1ccc(C(=O)N2c3ccccc3Sc3ccccc32)c(C(F)(F)F)c1"
  GI50 / nM: 500
- item smiles: "COc1ccc(C(=O)N2c3ccccc3Sc3ccccc32)c(F)c1"
  GI50 / nM: 615
- item smiles: "COc1ccc(C(=O)N2c3ccccc3Sc3ccccc32)cc1F"
  GI50 / nM: 353
- item smiles: "COc1ccc(C(=O)N2c3ccccc3Sc3ccccc32)c(OC)c1"
  GI50 / nM: 615

* * *

System: MDA-MB-231
experimental details: Growth inhibition of human MDA-MB-231 cells at 10 uM after 48 hrs by SRB assay relative to control
Type: functional
experimental context: MDA-MB-231, 48 h, read-out: GI

- item smiles: "O=C(c1ccc(F)cc1F)N1c2ccccc2Sc2ccccc21"
  inhibition of growth at 10 µM, %: 38
- item smiles: "O=C(c1ccc2c(c1)Sc1ccccc1N2)c1c[nH]c2ccccc12"
  inhibition of growth at 10 µM, %: 54
- item smiles: "O=C(c1ccc(F)c(Cl)c1)N1c2ccccc2Sc2ccccc21"
  inhibition of growth at 10 µM, %: 39
- item smiles: "COc1ccc(C(=O)N2c3ccccc3Sc3ccccc32)c(OC)c1"
  inhibition of growth at 10 µM, %: 62
- item smiles: "COc1ccc(C(=O)N2c3ccccc3Sc3ccccc32)c(F)c1"
  inhibition of growth at 10 µM, %: 47
- item smiles: "COc1ccc(C(=O)N2c3ccccc3Sc3ccccc32)cc1F"
  inhibition of growth at 10 µM, %: 69
- item smiles: "COc1ccc(C(=O)N2c3ccccc3Sc3ccccc32)c(C(F)(F)F)c1"
  inhibition of growth at 10 µM, %: 76
- item smiles: "O=C(c1ccc(Cl)cc1Cl)N1c2ccccc2Sc2ccccc21"
  inhibition of growth at 10 µM, %: 31

* * *

experimental details: Growth inhibition of human HCT15 cells at 10 uM after 48 hrs by SRB assay relative to control
Format: functional
experimental context: HCT-15, 48 h, read-out: GI

- item smiles: "O=C(c1ccc(Cl)cc1Cl)N1c2ccccc2Sc2ccccc21"
  inhibition of growth at 10 µM / %: 70
- item smiles: "O=C(c1ccc(F)c(Cl)c1)N1c2ccccc2Sc2ccccc21"
  inhibition of growth at 10 µM / %: 73
- item smiles: "COc1ccc(C(=O)N2c3ccccc3Sc3ccccc32)c(OC)c1"
  inhibition of growth at 10 µM / %: 81
- item smiles: "O=C(c1ccc(F)cc1F)N1c2ccccc2Sc2ccccc21"
  inhibition of growth at 10 µM / %: 76
- item smiles: "COc1ccc(C(=O)N2c3ccccc3Sc3ccccc32)cc1F"
  inhibition of growth at 10 µM / %: 76
- item smiles: "COc1ccc(C(=O)N2c3ccccc3Sc3ccccc32)c(C(F)(F)F)c1"
  inhibition of growth at 10 µM / %: 82
- item smiles: "COc1ccc(C(=O)N2c3ccccc3Sc3ccccc32)c(F)c1"
  inhibition of growth at 10 µM / %: 73
- item smiles: "COc1ccc(C(=O)c2ccc3c(c2)Sc2cc(C(=O)c4ccc(OC)c(F)c4)ccc2N3C)cc1F"
  inhibition of growth at 10 µM / %: 0
- item smiles: "O=C(c1ccc2c(c1)Sc1ccccc1N2)c1c[nH]c2ccccc12"
  inhibition of growth at 10 µM / %: 68
- item smiles: "O/N=C(/c1ccc2c(c1)Sc1ccccc1N2)c1c[nH]c2ccccc12"
  inhibition of growth at 10 µM / %: 58
- item smiles: "COc1ccc(C(=O)c2ccc3c(c2)Sc2ccccc2N3C)cc1F"
  inhibition of growth at 10 µM / %: 36

* * *

System: NCI-H322M
experimental details: Growth inhibition of human NCI-H322M cells at 10 uM after 48 hrs by SRB assay relative to control
Assay type: functional
experimental context: read-out: GI
Listed next: entries and their corresponding inhibition of growth at 10 µM.

- item smiles: "O=C(c1ccc(F)c(Cl)c1)N1c2ccccc2Sc2ccccc21"
  tested system: "NCI-H322M"
  inhibition of growth at 10 µM, %: 0
- item smiles: "COc1ccc(C(=O)N2c3ccccc3Sc3ccccc32)c(F)c1"
  tested system: "NCI-H322M"
  inhibition of growth at 10 µM, %: 56
- item smiles: "COc1ccc(C(=O)N2c3ccccc3Sc3ccccc32)c(C(F)(F)F)c1"
  tested system: "NCI-H322M"
  inhibition of growth at 10 µM, %: 47
- item smiles: "COc1ccc(C(=O)c2ccc3c(c2)Sc2ccccc2N3C)cc1F"
  tested system: "NCI-H322M"
  inhibition of growth at 10 µM, %: 5
- item smiles: "O=C(c1ccc(Cl)cc1Cl)N1c2ccccc2Sc2ccccc21"
  tested system: "NCI-H322M"
  inhibition of growth at 10 µM, %: 15
- item smiles: "O/N=C(/c1ccc2c(c1)Sc1ccccc1N2)c1c[nH]c2ccccc12"
  tested system: "NCI-H322M"
  inhibition of growth at 10 µM, %: 26
- item smiles: "COc1ccc(C(=O)c2ccc3c(c2)Sc2cc(C(=O)c4ccc(OC)c(F)c4)ccc2N3C)cc1F"
  tested system: "NCI-H322M"
  inhibition of growth at 10 µM, %: 0
- item smiles: "O=C(c1ccc(F)cc1F)N1c2ccccc2Sc2ccccc21"
  tested system: "NCI-H322M"
  inhibition of growth at 10 µM, %: 8
- item smiles: "COc1ccc(C(=O)N2c3ccccc3Sc3ccccc32)c(OC)c1"
  tested system: "NCI-H322M"
  inhibition of growth at 10 µM, %: 38
